- test.system: AtPDF variant G41M (Arabidopsis thaliana, UniProt Q9FUZ2, G121M)
- Construct: Expression and purification of mature Arabidopsis thaliana PDF1B and all variants (i.e., AtPDF)
- Sequence (Q9FUZ2 57-273 G121M): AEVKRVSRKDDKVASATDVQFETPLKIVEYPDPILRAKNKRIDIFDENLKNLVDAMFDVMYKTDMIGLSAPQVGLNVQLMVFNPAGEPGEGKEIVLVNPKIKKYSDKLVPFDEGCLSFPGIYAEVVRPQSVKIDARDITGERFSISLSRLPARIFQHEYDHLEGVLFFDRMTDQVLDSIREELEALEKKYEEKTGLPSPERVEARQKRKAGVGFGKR
- assay.info: Isothermal titration calorimetry (ITC)
pKd: −log10 of the molar value.
readout.type: pKd

                           smiles_structure  readout_type  test_result
0  CCCCC[C@H](CC(=O)NO)C(=O)N[C@H](C(=O)N1CCC[C@H]1CO)C(C)C           pKd         7.49

###

- test.system: AtPDF variant I42N (Arabidopsis thaliana, UniProt Q9FUZ2, I122N)
- Construct: Expression and purification of mature Arabidopsis thaliana PDF1B and all variants (i.e., AtPDF); made in house
- Sequence (Q9FUZ2 57-273 I122N): as the sequence (Q9FUZ2 57-273 G121M) above, with M65G, I66N counted along it
- assay.info: biochemical
- recorded.conditions: KI, I42N; 100 nM enzyme; no preincubation, started by adding enzyme
readout.type: Ki (nM)

>>> print(df.to_string())
                           smiles_structure  readout_units  test_result
0  CCCCC[C@H](CC(=O)NO)C(=O)N[C@H](C(=O)N1CCC[C@H]1CO)C(C)C             nM           39
